Where do these numbers come from? They come from patent US20130040912A1.

Target: UniProtKB P42336
Assay: in vitro PI3Kalpha inhibition, Kinase Glo assay
Format: biochemical
Conditions: Kinase Glo assay at 200 nM; % remaining activity, the smaller the value, the stronger the inhibition; read-out: In vitro PI3Kα, % remaining activity
MEASURE NAME: remaining activity at 0.2 µM (%)

C=CC(=O)NCCN1CCN(c2nc(N3CCOCC3)nc(-n3c(C(F)F)nc4ccccc43)n2)CC1 [Compound 10] : 20

(P) FC(F)c1nc2ccccc2n1-c1nc(N2CCOCC2)nc(N2CCOCC2)n1 [Compound 4, reference compound]
(Q) C=CC(=O)N1CCN(c2nc(N3CCOCC3)nc(-n3c(C(F)F)nc4ccccc43)n2)CC1 [Compound 8]
Query: Between the entries labeled P and Q , whose measured remaining activity at 0.2 µM is lower? Respond using the label that marks the chosen record.
Result: Q
(Q: 8%, P: 13%)

###

Biological target: PI3Kalpha (Homo sapiens, UniProt P42336)
Sequence (P42336 whole entry, species assumed): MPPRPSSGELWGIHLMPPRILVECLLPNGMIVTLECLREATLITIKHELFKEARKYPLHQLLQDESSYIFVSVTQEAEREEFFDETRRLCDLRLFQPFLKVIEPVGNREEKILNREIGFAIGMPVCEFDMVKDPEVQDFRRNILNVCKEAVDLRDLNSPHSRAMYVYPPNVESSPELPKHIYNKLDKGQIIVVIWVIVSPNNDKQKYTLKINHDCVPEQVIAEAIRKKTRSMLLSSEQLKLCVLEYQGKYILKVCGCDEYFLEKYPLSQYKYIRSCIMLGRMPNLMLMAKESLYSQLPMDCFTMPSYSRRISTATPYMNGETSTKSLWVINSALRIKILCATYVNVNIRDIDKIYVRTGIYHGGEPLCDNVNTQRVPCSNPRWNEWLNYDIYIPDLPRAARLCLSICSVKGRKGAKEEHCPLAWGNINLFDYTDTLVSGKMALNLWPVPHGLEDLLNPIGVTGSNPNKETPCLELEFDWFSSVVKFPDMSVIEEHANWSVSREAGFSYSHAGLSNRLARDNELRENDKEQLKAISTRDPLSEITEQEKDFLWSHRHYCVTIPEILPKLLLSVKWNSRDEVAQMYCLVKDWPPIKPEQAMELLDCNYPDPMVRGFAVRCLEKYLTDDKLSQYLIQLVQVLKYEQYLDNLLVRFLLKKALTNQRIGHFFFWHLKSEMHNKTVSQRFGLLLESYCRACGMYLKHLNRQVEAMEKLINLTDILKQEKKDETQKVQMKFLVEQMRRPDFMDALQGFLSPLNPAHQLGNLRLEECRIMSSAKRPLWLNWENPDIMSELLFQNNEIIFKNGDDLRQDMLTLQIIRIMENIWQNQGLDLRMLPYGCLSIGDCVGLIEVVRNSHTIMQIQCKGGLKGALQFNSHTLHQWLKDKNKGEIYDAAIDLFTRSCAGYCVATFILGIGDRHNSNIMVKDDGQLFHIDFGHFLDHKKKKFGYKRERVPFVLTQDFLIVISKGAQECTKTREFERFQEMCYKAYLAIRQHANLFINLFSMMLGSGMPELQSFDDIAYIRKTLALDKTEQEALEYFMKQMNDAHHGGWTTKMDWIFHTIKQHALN
Sequence (P27986 whole entry partner, species assumed): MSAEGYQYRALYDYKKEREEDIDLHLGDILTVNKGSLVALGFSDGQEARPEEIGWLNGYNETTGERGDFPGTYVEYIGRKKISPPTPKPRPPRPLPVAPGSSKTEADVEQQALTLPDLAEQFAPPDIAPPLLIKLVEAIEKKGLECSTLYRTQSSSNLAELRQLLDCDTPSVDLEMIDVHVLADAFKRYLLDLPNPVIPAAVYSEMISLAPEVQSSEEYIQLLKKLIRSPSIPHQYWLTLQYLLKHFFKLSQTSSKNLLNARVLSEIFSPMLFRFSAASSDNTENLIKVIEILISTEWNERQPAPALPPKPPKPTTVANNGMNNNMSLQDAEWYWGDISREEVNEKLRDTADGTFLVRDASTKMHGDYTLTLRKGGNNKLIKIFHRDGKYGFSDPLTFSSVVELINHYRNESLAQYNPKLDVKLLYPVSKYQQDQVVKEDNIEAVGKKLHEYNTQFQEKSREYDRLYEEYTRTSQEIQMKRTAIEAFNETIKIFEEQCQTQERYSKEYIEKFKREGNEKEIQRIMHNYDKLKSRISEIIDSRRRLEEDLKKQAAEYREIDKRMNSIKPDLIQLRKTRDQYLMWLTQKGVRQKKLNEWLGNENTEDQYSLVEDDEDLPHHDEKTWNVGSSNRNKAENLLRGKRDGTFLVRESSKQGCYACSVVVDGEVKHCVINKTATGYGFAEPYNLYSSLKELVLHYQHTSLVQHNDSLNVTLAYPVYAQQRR
Assay: in vitro PI3Kalpha inhibition, Kinase Glo assay
Type: biochemical
Details: Kinase Glo assay at 200 nM; % remaining activity, the smaller the value, the stronger the inhibition; read-out: In vitro PI3Kα, % remaining activity
MEASURE NAME: remaining activity at 0.2 µM (%)

In the examples that follow, each entry is paired with its recorded remaining activity at 0.2 µM.
NCCN1CCN(c2nc(N3CCOCC3)nc(-n3c(C(F)F)nc4ccccc43)n2)CC1 : 50
CCOCCN1CCN(c2nc(N3CCOCC3)nc(-n3c(C(F)F)nc4ccccc43)n2)CC1 : 42
CN1CCN(c2nc(N3CCOCC3)nc(-n3c(C(F)F)nc4ccccc43)n2)CC1 : 33
CCS(=O)(=O)N1CCN(c2nc(N3CCOCC3)nc(-n3c(C(F)F)nc4ccccc43)n2)CC1 : 35
O=C(CCCCCNC(=O)COc1ccc(/C=C/C2=[N+]3C(=Cc4ccc(-c5cccs5)n4[B-]3(F)F)C=C2)cc1)NCCN1CCN(c2nc(N3CCOCC3)nc(-n3c(C(F)F)nc4ccccc43)n2)CC1 : 13

(1) CCCCCCN1CCN(c2nc(N3CCOCC3)nc(-n3c(C(F)F)nc4ccccc43)n2)CC1
(2) CN1CCN(c2nc(N3CCOCC3)nc(-n3cnc4ccccc43)n2)CC1 [Compound 17, reference compound]
Query: Select the item with the higher value of remaining activity at 0.2 µM from the options 1 and 2 listed. Answer = label.
Result: 2
(2: 83%, 1: 45%)

###

Readings of activity at 1 µM for the listed compounds
Tested on: TSC2-/- MEFs cell line
Experiment: in cell Western inhibition assay on TSC2-/- MEFs cell line
Format: cell-based
Settings: 1 μM; in cell Western; the smaller the value, the stronger the inhibition; read-out: TSC2-/- MEFs cell inhibition pS6, % remaining activity
The reply should contain only the number, in %.

Past entries and their recorded results:
O=C(CCCCCNC(=O)COc1ccc(/C=C/C2=[N+]3C(=Cc4ccc(-c5cccs5)n4[B-]3(F)F)C=C2)cc1)NCCN1CCN(c2nc(N3CCOCC3)nc(-n3c(C(F)F)nc4ccccc43)n2)CC1 [Compound 13] : 95.5
NCCN1CCN(c2nc(N3CCOCC3)nc(-n3c(C(F)F)nc4ccccc43)n2)CC1 [Compound 9] : 89.9
CCCCCCN1CCN(c2nc(N3CCOCC3)nc(-n3c(C(F)F)nc4ccccc43)n2)CC1 [Compound 11] : 85.7
CN1CCN(c2nc(N3CCOCC3)nc(-n3c(C(F)F)nc4ccccc43)n2)CC1 [Compound 5] : 67.3

Query: What activity at 1 µM value was documented for this compound, CCS(=O)(=O)N1CCN(c2nc(N3CCOCC3)nc(-n3c(C(F)F)nc4ccccc43)n2)CC1 [Compound 7] ?
Result: 104

Query: # activity at 1 µM lookup, item FC(F)c1nc2ccccc2n1-c1nc(N2CCOCC2)nc(N2CCOCC2)n1 [Compound 4, reference compound]
Result: 37.9

###

Test system: TSC2-/- MEFs cell line
Assay: in cell Western inhibition assay on TSC2-/- MEFs cell line
Type: cell-based
Settings: 1 μM; in cell Western; the smaller the value, the stronger the inhibition; read-out: TSC2-/- MEFs cell inhibition pS6, % remaining activity
MEASURE NAME: activity at 1 µM (%)
# value in %; strip the unit string

CN1CCN(c2nc(N3CCOCC3)nc(-n3cnc4ccccc43)n2)CC1 [Compound 17, reference compound] : 123
C=CC(=O)N1CCN(c2nc(N3CCOCC3)nc(-n3c(C(F)F)nc4ccccc43)n2)CC1 : 95
CCOCCN1CCN(c2nc(N3CCOCC3)nc(-n3c(C(F)F)nc4ccccc43)n2)CC1 : 77.1

Consider the additional compound presented here.
Query: Any idea what activity at 1 µM was measured for `C=CC(=O)NCCN1CCN(c2nc(N3CCOCC3)nc(-n3c(C(F)F)nc4ccccc43)n2)CC1` ?
Result: 74.5
